Each recorded value in this set is attributed to patent US20240398811A1.

molecular target: purified human, His-tagged PRC2 complex (Homo sapiens (Human), UniProt O75530); assay: Hot Spot HMT assay, inhibition of PRC2 enzymatic activity; conditions: 10 nM PRC2 complex, 1 μM 3H-SAM, core histone H3, 10-point dose-response
Sequence (O75530 whole entry): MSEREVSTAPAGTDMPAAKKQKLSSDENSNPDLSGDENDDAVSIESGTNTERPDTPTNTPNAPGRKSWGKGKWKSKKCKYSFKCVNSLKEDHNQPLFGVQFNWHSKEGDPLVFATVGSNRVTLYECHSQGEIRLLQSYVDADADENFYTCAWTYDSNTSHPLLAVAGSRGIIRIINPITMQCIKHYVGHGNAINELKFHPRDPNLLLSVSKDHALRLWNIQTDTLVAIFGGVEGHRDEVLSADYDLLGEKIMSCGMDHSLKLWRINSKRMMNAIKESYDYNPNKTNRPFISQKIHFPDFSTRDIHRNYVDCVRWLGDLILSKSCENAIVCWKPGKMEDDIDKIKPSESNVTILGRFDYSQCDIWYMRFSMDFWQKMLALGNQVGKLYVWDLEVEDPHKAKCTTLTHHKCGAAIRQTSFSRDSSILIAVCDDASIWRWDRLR
Sequence (Q15910 whole entry partner): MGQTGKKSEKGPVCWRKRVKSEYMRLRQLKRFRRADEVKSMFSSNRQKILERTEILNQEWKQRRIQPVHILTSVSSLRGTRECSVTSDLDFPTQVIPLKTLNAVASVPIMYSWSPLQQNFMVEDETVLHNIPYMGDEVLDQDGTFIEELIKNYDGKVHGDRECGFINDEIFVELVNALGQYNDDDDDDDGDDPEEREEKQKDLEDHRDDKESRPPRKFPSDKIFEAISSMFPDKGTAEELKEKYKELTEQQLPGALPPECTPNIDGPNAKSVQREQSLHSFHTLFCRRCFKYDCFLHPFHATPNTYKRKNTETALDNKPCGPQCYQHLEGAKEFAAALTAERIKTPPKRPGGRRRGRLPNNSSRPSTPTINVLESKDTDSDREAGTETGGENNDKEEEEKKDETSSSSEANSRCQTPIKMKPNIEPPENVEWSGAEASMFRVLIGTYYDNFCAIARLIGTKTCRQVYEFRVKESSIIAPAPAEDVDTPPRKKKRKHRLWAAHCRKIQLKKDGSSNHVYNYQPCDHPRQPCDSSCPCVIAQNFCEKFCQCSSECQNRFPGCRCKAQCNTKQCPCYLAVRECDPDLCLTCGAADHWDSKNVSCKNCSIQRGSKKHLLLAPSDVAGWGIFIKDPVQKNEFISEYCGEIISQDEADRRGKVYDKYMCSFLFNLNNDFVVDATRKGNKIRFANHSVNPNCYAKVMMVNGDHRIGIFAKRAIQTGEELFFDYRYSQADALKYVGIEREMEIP
Sequence (Q15022 whole entry partner): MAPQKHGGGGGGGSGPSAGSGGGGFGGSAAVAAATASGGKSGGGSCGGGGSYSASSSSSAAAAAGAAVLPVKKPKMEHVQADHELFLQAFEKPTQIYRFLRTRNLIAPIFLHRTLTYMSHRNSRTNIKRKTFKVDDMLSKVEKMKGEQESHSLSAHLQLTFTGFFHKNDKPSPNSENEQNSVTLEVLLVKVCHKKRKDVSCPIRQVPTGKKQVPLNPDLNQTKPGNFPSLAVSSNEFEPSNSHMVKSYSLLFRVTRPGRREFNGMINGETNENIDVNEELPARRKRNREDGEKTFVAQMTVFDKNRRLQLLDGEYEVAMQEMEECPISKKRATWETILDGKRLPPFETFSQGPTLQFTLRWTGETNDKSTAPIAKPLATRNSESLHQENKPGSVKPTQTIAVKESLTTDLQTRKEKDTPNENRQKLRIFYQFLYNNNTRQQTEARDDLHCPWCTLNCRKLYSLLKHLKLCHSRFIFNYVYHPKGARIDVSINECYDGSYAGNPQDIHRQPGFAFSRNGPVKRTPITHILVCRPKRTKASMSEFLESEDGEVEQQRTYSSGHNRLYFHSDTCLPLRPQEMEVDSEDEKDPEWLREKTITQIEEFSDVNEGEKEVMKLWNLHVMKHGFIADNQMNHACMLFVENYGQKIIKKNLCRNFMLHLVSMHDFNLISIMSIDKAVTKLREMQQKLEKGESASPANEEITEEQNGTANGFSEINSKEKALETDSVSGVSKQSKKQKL
Sequence (Q6ZN18 whole entry partner): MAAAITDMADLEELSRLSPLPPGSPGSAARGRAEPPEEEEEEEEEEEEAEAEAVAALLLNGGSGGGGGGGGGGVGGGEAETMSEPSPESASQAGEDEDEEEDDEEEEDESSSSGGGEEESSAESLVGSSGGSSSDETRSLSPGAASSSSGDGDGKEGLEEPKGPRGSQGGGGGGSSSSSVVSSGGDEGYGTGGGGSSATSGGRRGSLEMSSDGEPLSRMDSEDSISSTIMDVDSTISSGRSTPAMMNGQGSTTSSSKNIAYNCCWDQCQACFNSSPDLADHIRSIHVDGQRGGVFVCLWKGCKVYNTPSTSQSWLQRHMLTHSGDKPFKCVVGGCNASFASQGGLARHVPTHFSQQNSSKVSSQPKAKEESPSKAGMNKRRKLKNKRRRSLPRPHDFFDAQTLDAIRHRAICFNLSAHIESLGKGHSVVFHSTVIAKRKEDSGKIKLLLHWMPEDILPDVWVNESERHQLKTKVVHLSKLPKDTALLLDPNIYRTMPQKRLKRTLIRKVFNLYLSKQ
Sequence (Q09028 whole entry partner): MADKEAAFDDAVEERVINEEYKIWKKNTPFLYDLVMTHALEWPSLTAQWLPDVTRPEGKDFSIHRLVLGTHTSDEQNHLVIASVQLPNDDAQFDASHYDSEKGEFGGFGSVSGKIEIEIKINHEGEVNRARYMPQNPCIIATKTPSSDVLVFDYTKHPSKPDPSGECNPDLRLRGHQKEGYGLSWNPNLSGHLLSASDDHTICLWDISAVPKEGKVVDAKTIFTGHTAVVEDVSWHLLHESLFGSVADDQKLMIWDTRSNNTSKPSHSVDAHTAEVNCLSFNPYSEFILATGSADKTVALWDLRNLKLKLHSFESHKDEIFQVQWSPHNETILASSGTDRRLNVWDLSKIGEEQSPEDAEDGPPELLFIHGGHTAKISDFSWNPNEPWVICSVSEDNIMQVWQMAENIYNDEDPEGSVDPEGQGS
Entries and their IC50

Check out these entries, answers already filled in.
>  <CHEMICAL SMILES>
CN(C)Cc1ccc(-c2cnc(NCc3c(F)ccc4c3CCO4)n3cc(C#N)nc23)cc1

>  <MEASURED ON>
purified human, His-tagged PRC2 complex (Homo sapiens (Human), UniProt O75530)

>  <IC50>
< 0.1 µM

$$$$
>  <CHEMICAL SMILES>
Cc1nc(C2CC2)ncc1-c1cnc(NCc2c(F)ccc3c2CCO3)n2cc(C(=O)O)nc12

>  <MEASURED ON>
purified human, His-tagged PRC2 complex (Homo sapiens (Human), UniProt O75530)

>  <IC50>
< 0.1 µM

$$$$
>  <CHEMICAL SMILES>
Cc1cc(CN(C)C)ncc1-c1cnc(NCc2c(F)ccc3c2CCO3)n2cc(C#N)nc12

>  <MEASURED ON>
purified human, His-tagged PRC2 complex (Homo sapiens (Human), UniProt O75530)

>  <IC50>
< 0.1 µM

$$$$
>  <CHEMICAL SMILES>
Cc1nc(-c2cnc(NCc3c(F)ccc4c3CCO4)n3cc(C#N)nc23)c(C)s1

>  <MEASURED ON>
purified human, His-tagged PRC2 complex (Homo sapiens (Human), UniProt O75530)

>  <IC50>
0.1 to 0.5 µM

$$$$

In: Report value: IC50, system: purified human, His-tagged PRC2 complex (Homo sapiens (Human), UniProt O75530), molecule: "COc1cc(-c2cnc(NCc3c(F)ccc4c3CCO4)n3cc(C#N)nc23)c(F)cn1"
Out: < 0.1 µM

In: Report value: IC50, system: purified human, His-tagged PRC2 complex (Homo sapiens (Human), UniProt O75530), molecule: "N#Cc1cn2c(NCc3c(F)ccc4c3CCO4)ncc(-c3ccncn3)c2n1"
Out: < 0.1 µM

In: Report value: IC50, system: purified human, His-tagged PRC2 complex (Homo sapiens (Human), UniProt O75530), molecule: "COc1ccc(-c2cnc(NCc3c(F)ccc4c3CCO4)n3cc(C#N)nc23)cn1"
Out: < 0.1 µM

In: Report value: IC50, system: purified human, His-tagged PRC2 complex (Homo sapiens (Human), UniProt O75530), molecule: "N#Cc1cn2c(NCc3c(F)ccc4c3CCO4)ncc(-c3cnn(C4CCOCC4)c3)c2n1"
Out: > 0.5 µM
